Tested on: SK-MEL-28 melanoma
Response enum: active, inactive

Please review the entries below; each comes with its answer.
molecule: Oc1ccc(Cl)cc1Cc1cc(Cl)ccc1O
assigned-label: inactive
//
molecule: CC1=C(C(=O)Nc2ccc(Cl)c(Cl)c2)C(c2ccccc2O)NC(=O)N1 (stereo not given)
assigned-label: inactive
//
molecule: CCOc1cc(-c2ccc[nH]2)[nH]c1/C=C1\N=C(C)C(C(=O)OC)=C1C
assigned-label: active

Query: Answer briefly: the call reported for "CN1CCN(c2nc(-c3ccncc3)nc3sc4c(c23)CCCCCC4)CC1" in this assay.
Result: inactive

Query: Answer briefly: the call reported for "OCNCCNc1nc2ccccc2c2[nH]c3ccccc3c12" in this assay.
Result: inactive

Query: Answer briefly: the call reported for CSC1=NCC2(S1)c1ccccc1N(C(=O)OC(C)(C)C)C2N1CCCCC1 (stereo not given) in this assay.
Result: inactive

Query: Answer briefly: the call reported for "O=C(Nc1ccccc1C(=O)N/N=C(\c1ccccc1)c1ccccn1)c1ccc(F)cc1" in this assay.
Result: inactive

Query: Answer briefly: the call reported for "COc1cc(NC(=O)Nc2cnc(Nc3ccc(N4CCOCC4)cc3)nc2Oc2cccc(OC)c2)cc(OC)c1" in this assay.
Result: inactive

Query: Answer briefly: the call reported for "N[C@@H]1CCCC[C@@H]1N.O=P([O-])([O-])CN(CP(=O)([O-])[O-])CP(=O)([O-])[O-].[Pt+2]" in this assay.
Result: inactive

Query: Answer briefly: the call reported for "COc1cc([N+](=O)[O-])c2ncccc2c1[N+](=O)[O-]" in this assay.
Result: inactive

====

Test system: UACC-62 melanoma
Response enum: active, inactive

Please review the entries below; each comes with its answer.
compound: OCNCCNc1nc2ccccc2c2[nH]c3ccccc3c12
assigned-label: inactive
//
compound: O=C(NCCCCCCCNC(=O)OCc1ccc2c(Cl)cc(Cl)c(O)c2n1)OCc1ccc2c(Cl)cc(Cl)c(O)c2n1
assigned-label: inactive
//
compound: Cc1cc(Cl)ccc1NS(=O)(=O)c1ccc(-c2cnc(C3CC3)o2)cc1
assigned-label: active
//
compound: Cc1ccc(C(C)C)cc1NC(=O)Nc1ccc([N+](=O)[O-])cc1
assigned-label: inactive
//
compound: O=C(Cc1csc2nc(-c3ccc(Br)cc3)cn12)N/N=C/c1ccc(O)cc1
assigned-label: inactive
//
compound: CC1(C)CC[C@]2(C(N)=O)CC[C@]3(C)C(=CC[C@@H]4[C@@]5(C)C/C(=C/c6ccncc6)C(=O)C(C)(C)[C@@H]5CC[C@]43C)[C@@H]2C1
assigned-label: inactive

Consider the additional compound presented here.
Query: Answer briefly: the call reported for "Cc1cc(Cl)ccc1Nc1nc(C(F)(F)F)ccc1C(=O)N1CCN(c2cccc(Cl)c2)CC1" in this assay.
Result: inactive

====

Test system: M19-MEL melanoma
run-description: NCI tumour cell line growth inhibition, 48 h
measurement-name: TGI

Query: Check M19-MEL melanoma data and give TGI for "COc1ccc(S(=O)(=O)N(C)CC(=O)O)cc1" .
Result: > 100 µM

====

Test system: NCI/ADR-RES ovarian
Response enum: active, inactive

Please review the entries below; each comes with its answer.
given-smiles: COc1cc(NC(=O)Nc2cnc(Nc3ccc(N4CCOCC4)cc3)nc2Oc2cccc(OC)c2)cc(OC)c1
assigned-label: inactive
--
given-smiles: Cc1cc(Cl)ccc1NS(=O)(=O)c1ccc(-c2cnc(C3CC3)o2)cc1
assigned-label: active
--
given-smiles: OCNCCNc1nc2ccccc2c2[nH]c3ccccc3c12
assigned-label: inactive

Consider the additional compound presented here.
Query: Answer briefly: the call reported for "O=C(Nc1cccc(-n2cc(-c3ccncc3)c(-c3ccc(O)c(Cl)c3)n2)c1)c1cccc(C(F)(F)F)c1" in this assay.
Result: inactive

Sourced from PubChem BioAssay (NCI)
